Biological target: human ether-à-go-go-related gene (hERG) potassium channel (human);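 also: peak tail current of the secondary pulse compared with the same well before compound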
Sequence (Q12809 whole entry, looked up): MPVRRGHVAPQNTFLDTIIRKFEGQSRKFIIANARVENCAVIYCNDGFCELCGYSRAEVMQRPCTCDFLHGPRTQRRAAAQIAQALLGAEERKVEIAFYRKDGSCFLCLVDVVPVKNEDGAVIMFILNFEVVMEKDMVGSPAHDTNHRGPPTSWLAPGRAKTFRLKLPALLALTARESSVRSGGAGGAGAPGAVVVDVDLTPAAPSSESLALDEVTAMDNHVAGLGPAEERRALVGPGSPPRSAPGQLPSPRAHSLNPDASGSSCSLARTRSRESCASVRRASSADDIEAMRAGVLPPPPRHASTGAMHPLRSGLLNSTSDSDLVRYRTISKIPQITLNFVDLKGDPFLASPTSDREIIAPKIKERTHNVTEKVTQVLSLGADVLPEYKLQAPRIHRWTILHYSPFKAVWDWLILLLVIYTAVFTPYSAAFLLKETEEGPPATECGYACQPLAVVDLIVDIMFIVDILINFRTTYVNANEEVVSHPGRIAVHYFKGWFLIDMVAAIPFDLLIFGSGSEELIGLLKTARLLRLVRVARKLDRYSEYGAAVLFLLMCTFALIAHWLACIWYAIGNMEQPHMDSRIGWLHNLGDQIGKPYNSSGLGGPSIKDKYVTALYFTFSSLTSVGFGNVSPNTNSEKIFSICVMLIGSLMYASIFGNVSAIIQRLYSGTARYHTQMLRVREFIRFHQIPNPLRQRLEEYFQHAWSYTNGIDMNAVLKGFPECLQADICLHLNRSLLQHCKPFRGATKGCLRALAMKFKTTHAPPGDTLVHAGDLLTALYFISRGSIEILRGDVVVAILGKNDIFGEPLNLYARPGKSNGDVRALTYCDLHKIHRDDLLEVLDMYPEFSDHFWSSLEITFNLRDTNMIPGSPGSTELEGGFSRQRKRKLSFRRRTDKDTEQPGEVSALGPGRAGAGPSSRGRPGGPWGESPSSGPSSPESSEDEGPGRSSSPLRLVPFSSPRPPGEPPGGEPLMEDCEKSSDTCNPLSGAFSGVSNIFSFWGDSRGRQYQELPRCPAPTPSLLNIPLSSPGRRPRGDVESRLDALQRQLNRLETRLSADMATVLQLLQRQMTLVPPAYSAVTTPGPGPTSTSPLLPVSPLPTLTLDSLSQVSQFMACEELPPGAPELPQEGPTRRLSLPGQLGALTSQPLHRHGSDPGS
Test: primary screen, population patch clamp on CHO cells stably expressing hERG; higher = less effect of the substance
The whole screen tested about 310,000 compounds, of which about 14,000 (4.5%) showed an effect of 50% or more. Effects have a minus sign here. Only a selection was taken, and strong results are over-represented in it overall.
readout: hERG current change (%, negative = inhibition) at 10uM (%)
Write the number in % without appending the unit.

The cases that follow already have their hERG current change (%, negative = inhibition) at 10uM on record.
compound	unitOfMeasure	reportedResult
O=C(COC(=O)/C=C/c1ccc(S(=O)(=O)N2CCOCC2)cc1)NCc1ccc(Cl)cc1	%	1.35
O=C(c1ccc(S(=O)(=O)N2CCOCC2)cc1)N1CCN(c2ccccn2)CC1	%	4.62

Return reported hERG current change (%, negative = inhibition) at 10uM; argument: CC(C)(CC(=O)O)CC(=O)N1CCCN(c2nccc(C(F)(F)F)n2)CC1
17.8

Likewise for COc1ccc(S(=O)(=O)N2CCOC2CNC(=O)C(=O)NCc2ccc3c(c2)OCO3)cc1 (stereo not drawn) ?
-25.6

And the next one, COc1cc(C(=O)OCC(=O)c2cc(C)n(CC3CCCO3)c2C)cc(OC)c1C (stereo not drawn) ?
-68

---

Target: human ether-à-go-go-related gene (hERG) potassium channel (human);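 also: peak tail current of the secondary pulse compared with the same well before compound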
Test: primary screen, population patch clamp on CHO cells stably expressing hERG; higher = less effect of the substance
Procedure: Briefly, Chinese hamster ovary (CHO) cells stably expressing the hERG channel were dislodged from tissue culture flasks and dispensed into PPC plates. […] During the recording, background leak currents were estimated by a 100 ms step to -80 mV from an initial holding potential of -70 mV and subtracted from the subsequent current measurement. The campaign was conducted in two phases using slight differences in recording protocol. […]
Hit rate of the full screen: of about 310,000 compounds, about 14,000 (4.5%) showed an effect of 50% or more. The effect is printed as a negative number. The list comes from a sample in which strong results are over-represented; it also holds close analogues and randomly drawn compounds.
In this section, each of the compounds is paired with its reported hERG current change (%, negative = inhibition) at 10uM.
The reply should be a number in %, with the unit left off.

compound	unitOfMeasure	reportedResult
Cc1nn(C)c(C)c1/C=C(/C(=O)C(C)(C)C)n1cncn1	%	28.5
COc1ccccc1CN1C[C@@H]2C[C@@H](c3cccc(O)c3)N3CCC[C@@]23C1=O	%	-33.6
COc1ccc(CC(=O)N2CCN(c3ccccn3)CC2)cc1	%	7.79
Cc1ccc(S(=O)(=O)NCC(=O)OCc2cc(=O)oc3c(C)c(C)ccc23)cc1C	%	-16.7
COCCNC(=O)Cn1nc(-c2ccc(Cl)cc2)c2ccccc2c1=O	%	8.83
CCN1C(=O)C(CC(=O)NCCc2ccccc2)N(NC(=O)c2cccnc2)C1=S (stereo not drawn)	%	-21.1
Cc1ccccc1CN(c1ccc(C(=O)N/N=C/c2ccc(OCC(N)=O)cc2)cc1)S(C)(=O)=O	%	5.85
CCCN1CNC(=S)N(Cc2ccccc2)C1	%	12.2
COc1ccccc1CN1C[C@@H]2C[C@@H](c3cccc(C)c3)N3CCC[C@@]23C1=O	%	-37
OCCC1CN(Cc2ccc3c(c2)CCO3)CCN1C1CCCC1 (stereo not drawn)	%	-12.7

Please turn your attention to the following entry.
Quick one: hERG current change (%, negative = inhibition) at 10uM for COC(=O)c1ccc(CN2CCN(CCC(C)C)C(CCO)C2)cc1 (stereo not drawn) ?
-25.7
